Listed molecules paired with reported log10 IC50
Target: Glucocorticoid receptor (Homo sapiens)
Sequence (P04150 whole entry): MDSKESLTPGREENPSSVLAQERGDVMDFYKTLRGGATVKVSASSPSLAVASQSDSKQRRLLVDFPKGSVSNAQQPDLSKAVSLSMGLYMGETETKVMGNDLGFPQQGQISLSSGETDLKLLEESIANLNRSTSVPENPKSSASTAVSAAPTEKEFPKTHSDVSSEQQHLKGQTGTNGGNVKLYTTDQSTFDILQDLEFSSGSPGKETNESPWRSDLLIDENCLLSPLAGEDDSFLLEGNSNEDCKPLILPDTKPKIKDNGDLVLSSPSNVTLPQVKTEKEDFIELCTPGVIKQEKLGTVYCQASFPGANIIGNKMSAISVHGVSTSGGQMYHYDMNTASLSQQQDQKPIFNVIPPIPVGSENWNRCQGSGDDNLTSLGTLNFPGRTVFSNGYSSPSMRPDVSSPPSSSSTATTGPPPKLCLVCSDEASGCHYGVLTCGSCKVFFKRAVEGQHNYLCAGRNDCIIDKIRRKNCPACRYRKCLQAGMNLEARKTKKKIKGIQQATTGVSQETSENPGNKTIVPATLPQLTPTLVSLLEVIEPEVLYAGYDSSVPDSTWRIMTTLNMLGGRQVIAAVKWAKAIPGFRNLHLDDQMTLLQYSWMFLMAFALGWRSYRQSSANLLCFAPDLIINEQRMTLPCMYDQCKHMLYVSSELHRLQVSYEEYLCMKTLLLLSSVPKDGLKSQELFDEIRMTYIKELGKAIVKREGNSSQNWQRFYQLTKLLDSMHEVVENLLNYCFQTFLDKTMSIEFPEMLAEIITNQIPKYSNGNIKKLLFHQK
Assay: Transrepression activity at glucocorticoid receptor in human NHDF cells assessed as inhibition of IL-1beta-stimulated AP1 dependent IL-6 repression by ELISA
Assay type: cell-based
observation.type: log10 IC50 (log10 of the value in nM)

molecule | log10 IC50
CO/N=C1/c2c(cc(F)c(-c3cccc4c(C)c[nH]c34)c2F)NC(C)(C)C1O (racemic) | 1.23
CCO/N=C1/c2c(cc(F)c(-c3cccc4c(C)c[nH]c34)c2F)NC(C)(C)C1O (racemic) | 0.72
CO/N=C1/c2c(cc(F)c(-c3cccc4c(Cl)c[nH]c34)c2F)NC(C)(C)C1O (stereo not drawn) | 1.34
Cc1c[nH]c2c(-c3c(F)cc4c(c3F)/C(=N/OC(C)C)CC(C)(C)N4)cccc12 | 1.04
Cc1c[nH]c2c(-c3c(F)cc4c(c3F)/C(=N/OC(C)(C)C)CC(C)(C)N4)cccc12 | 1.11
CC1(C)C/C(=N\OC(C)(C)C)c2c(cc(F)c(-c3cccc4cc[nH]c34)c2F)N1 | 1.60
Cc1c[nH]c2c(-c3c(F)cc4c(c3F)/C(=N/OC(C)(C)CO)CC(C)(C)N4)cccc12 | 1.81
CC1(C)C/C(=N\OC(C)(C)C)c2c(cc(F)c(-c3cccc4c(Cl)c[nH]c34)c2F)N1 | 1.28
